Experiment: Estimated solubilities of 2C-B HCl in solvents
Conditions: H2O, water, thermodynamic from solid
readout-type: solubility (mg/mL)
Answer with a number only, understood to be in mg/mL.

### Prompt So what does the record say about solubility for COc1cc(CCN)c(OC)cc1Br.Cl [2C-B HCl, 4-bromo-2,5-dimethoxyphenethylamine HCl] ?
### Response 34

###

In this section we review reported moisture gain by DVS, equivalent moles of water values for a set of compounds.
Test: Dynamic vapor sorption (DVS) with XRPD of the post-DVS sample
Assay type: physicochemical
Conditions: 25° C., adsorption 5 to 95% RH
Answer with a number only, understood to be in mol.

Before answering, review these 2 worked examples.
### Prompt So what does the record say about moisture gain by DVS, equivalent moles of water for COc1cc(CCN)c(OC)cc1Br.O=C(O)CC(O)(CC(=O)O)C(=O)O [Citrate (Form 2), 2C-B Citrate] ?
### Response 0.1

### Prompt Same question for COc1cc(CCN)c(OC)cc1Br.O=C(O)c1cc(O)ccc1O [Gentisate, 2C-B gentisate] please.
### Response 0.05

In the following, a different compound is considered.
### Prompt So what does the record say about moisture gain by DVS, equivalent moles of water for COc1cc(CCN)c(OC)cc1Br.O=S(=O)(O)c1ccccc1 [Besylate (Form 1), 2C-B besylate] ?
### Response 0.2
